Test: refractive index (Na D-line) (dimensionless); xn = mol fraction of the nth substance listed
Conditions: 308.15 K; 103 kPa; Liquid; Standard Abbe refractometry; x2 = 0.75
Numbers after ± are expanded uncertainties.
This section presents molecules with their documented refractive index values.

Molecule	refractive index
C=C[Si](C)(OCC)OCC [methylvinyldiethoxysilane] + CO[Si](C)(OC)c1ccccc1	1.45323 ± 0.004

Write down refractive index measured for item CO[Si](C)(C)OC [dimethoxydimethylsilane] + CO[Si](C)(OC)c1ccccc1
1.45148 ± 0.004

Write down refractive index measured for item C=C[Si](OC)(OC)OC [trimethoxy(vinyl)silane] + CO[Si](C)(OC)c1ccccc1
1.454 ± 0.004

Write down refractive index measured for item CCO[Si](C)(C)OCC [dimethyldiethoxysilane] + CO[Si](C)(OC)c1ccccc1
1.45002 ± 0.004

###

Settings: 308.15 K; 103 kPa; Liquid; Vibrating tube method
Observed Property: mass density (kg/m3)
Only the number, expressed in kg/m3, is required.

# count of solved cases: 4
Smiles Repr	Observed Property	Readout Value
C=C[Si](C)(OCC)OCC	mass density	845.89
C=C[Si](OC)(OC)OC	mass density	954.26
CO[Si](C)(OC)c1ccccc1	mass density	991.48
CCO[Si](C)(C)OCC	mass density	824.66

Write down mass density measured for item CO[Si](C)(C)OC
846.16

###

This section presents compounds with their documented refractive index values.
Assay: refractive index (Na D-line) (dimensionless); xn = mol fraction of the nth substance listed
Details: 303.15 K; 103 kPa; Liquid; Standard Abbe refractometry; x2 = 0.75
Write the value as a bare number.

Compound	Observed Property	Readout Value
C=C[Si](OC)(OC)OC [trimethoxy(vinyl)silane] + CO[Si](C)(OC)c1ccccc1	refractive index	1.45636
CCO[Si](C)(C)OCC [dimethyldiethoxysilane] + CO[Si](C)(OC)c1ccccc1	refractive index	1.45239
CO[Si](C)(C)OC [dimethoxydimethylsilane] + CO[Si](C)(OC)c1ccccc1	refractive index	1.45386

Attention now shifts to the item below.
Write down refractive index measured for item C=C[Si](C)(OCC)OCC [methylvinyldiethoxysilane] + CO[Si](C)(OC)c1ccccc1
1.45558

###

This section presents compounds with their documented refractive index values.
Test: refractive index (Na D-line) (dimensionless)
Settings: 313.15 K; 103 kPa; Liquid; Standard Abbe refractometry
Write the value as a bare number.

# count of solved cases: 4
Smiles Repr	refractive index
C=C[Si](C)(OCC)OCC	1.38997
C=C[Si](OC)(OC)OC	1.3829
CO[Si](C)(C)OC	1.36035
CO[Si](C)(OC)c1ccccc1	1.47061

Attention now shifts to the item below.
Write down refractive index measured for item CCO[Si](C)(C)OCC
1.37275

###

This section presents compounds with their documented mass density values.
Settings: 313.15 K; 103 kPa; Liquid; Vibrating tube method
Only the number, expressed in kg/m3, is required.

# count of solved cases: 4
Smiles Repr	mass density / kg/m3
C=C[Si](C)(OCC)OCC	840.71
C=C[Si](OC)(OC)OC	948.47
CCO[Si](C)(C)OCC	819.23
CO[Si](C)(OC)c1ccccc1	986.81

Attention now shifts to the item below.
Write down mass density measured for item CO[Si](C)(C)OC
840.22
